# System: SF-539 CNS
# testDetails: NCI-60 one-dose screen, 48 h
# testConditions: 10 µM unless noted
The panel holds about 83,000 compounds, 20% with a hit somewhere; the sample as a whole holds those more often. Activity calls are given as the source filed them. Rule for the calls: active = growth percent below 10; inactive = the rest.
API: response.call in 1.0 (active), 0.0 (inactive)

Test call for this molecule, please: C[C@@H]1C[C@H]2C(=O)O[C@@H](C)[C@H](NC(=O)[C@H](Cc3cc(F)cc(F)c3)NC(=O)Nc3ccc(C4CC4)cc3F)C(=O)N3CCC[C@H]3C(=O)N3CCCC[C@H]3C(=O)N[C@@H](C)C(=O)N2C1
0.0

Test call for this molecule, please: COc1ccc(C(=O)/C=C/c2ccccn2)c(O)c1
0.0

Test call for this molecule, please: COc1ccc(NCc2cn(-c3ccc(C(=O)O)cc3)nc2-c2ccc(C(=O)O)cc2)cc1C(F)(F)F
0.0

Test call for this molecule, please: O=[N+]([O-])c1cc([N+](=O)[O-])c(C(F)(F)F)cc1NN=C(c1ccc(O)cc1)c1ccc(O)cc1
1.0

Test call for this molecule, please: O=C(NCCCNC(=O)OCc1ccc2cccc(O)c2n1)OCc1ccc2cccc(O)c2n1
0.0

Test call for this molecule, please: CCN1c2ccccc2C(Cl)(c2ccc(N(C)C)cc2)c2ccccc21
0.0

Test call for this molecule, please: CCOC(=O)c1c[nH]n2c(=S)ncnc12
0.0

Test call for this molecule, please: C=C(C)[C@@H]1CC[C@]2(C(N)=O)CC[C@]3(C)[C@H](CC[C@@H]4[C@@]5(C)C/C(=C/c6cccnc6)C(=O)C(C)(C)[C@@H]5CC[C@]43C)[C@@H]12
1.0

Test call for this molecule, please: C=C(C)[C@@H]1CC[C@]2(C)[C@H](C(=O)C=C3[C@@H]4C[C@](C)(C(=O)N5CCN(C)CC5)CC[C@]4(C)CC[C@]32C)[C@@]1(C)CCC#N
1.0

Test call for this molecule, please: COc1ccc(-c2c(C)nn3c(NCCN4CCOCC4)cc(C)nc23)cc1OC
0.0

Test call for this molecule, please: COc1ccc(-c2nc3ccccn3c2/C=C/C(=O)c2cc(OC)c(OC)c(OC)c2)cc1OC
1.0

Test call for this molecule, please: CC(=O)CC(=O)SC1=NCCS1
0.0

Test call for this molecule, please: CC1(C)OC2[C@@H](CNC(=O)NC(=O)NC(=O)CI)O[C@@H](n3cnc4c(NC(=O)Nc5ccccc5)ncnc43)[C@H]2O1 (some centres not stated)
0.0

Test call for this molecule, please: O=C(Nc1cc(F)cc2cccnc12)c1cnc(N2CCNCC2)cn1
0.0

Test call for this molecule, please: Cc1cc2c(C(C)C)c(O)c(O)c(C=NCc3ccoc3)c2c(O)c1-c1c(C)cc2c(C(C)C)c(O)c(O)c(C=NCc3ccco3)c2c1O
0.0

Test call for this molecule, please: CCCCC(CC)COC(=O)C[N+](C)(C)CCOC(c1ccccc1)c1ccccc1 (configuration not stated)
0.0

Test call for this molecule, please: CC(C)=CC/C=C(/C)[C@H]1CC[C@]2(C)[C@@H]1CC[C@@H]1[C@@]3(C)CCCNC(C)(C)[C@@H]3CC[C@]12C
1.0
